Data origin, for the record: patent US20260132208A1

target_desc: human CCR8 with a SNAP-tag at the N-terminus (human, UniProt P51685 1-355, SNAP-tag labelled covalently with Lumi4-Terbium)
assay_name: cell-based or functional assay
quantity_kind: % hCCR8 internalization with CCL1 300 nM, mAb 1 µg/ml (HTRF) (%)
A number alone suffices; assume %.

Some entries whose results are on file:
# binder, quantitative_result
measured = [
    ("anti-CCR8 mAb 1-24 (antibody, human IgG1, kappa, V domains shown, Humanized mAb, human IgG1 / kappa) VH: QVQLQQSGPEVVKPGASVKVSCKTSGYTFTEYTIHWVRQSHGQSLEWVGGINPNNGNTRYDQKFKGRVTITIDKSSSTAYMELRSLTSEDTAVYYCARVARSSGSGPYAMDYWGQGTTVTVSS VL: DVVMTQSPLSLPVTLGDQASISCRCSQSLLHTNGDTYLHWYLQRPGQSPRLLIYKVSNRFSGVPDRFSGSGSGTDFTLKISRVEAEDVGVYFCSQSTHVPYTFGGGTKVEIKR", 44),
    ("anti-CCR8 mAb 1-22 (antibody, human IgG1, kappa, V domains shown, Humanized mAb, human IgG1 / kappa) VH: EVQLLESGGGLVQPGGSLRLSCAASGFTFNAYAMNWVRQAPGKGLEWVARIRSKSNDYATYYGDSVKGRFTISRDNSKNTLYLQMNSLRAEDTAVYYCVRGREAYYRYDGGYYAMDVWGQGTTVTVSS VL: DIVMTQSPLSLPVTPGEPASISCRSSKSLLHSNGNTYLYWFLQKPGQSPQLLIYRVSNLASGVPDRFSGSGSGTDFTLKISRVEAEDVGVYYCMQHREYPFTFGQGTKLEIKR", 139),
    ("anti-CCR8 mAb 1-23 (antibody, human IgG1, kappa, V domains shown, Humanized mAb, human IgG1 / kappa) VH: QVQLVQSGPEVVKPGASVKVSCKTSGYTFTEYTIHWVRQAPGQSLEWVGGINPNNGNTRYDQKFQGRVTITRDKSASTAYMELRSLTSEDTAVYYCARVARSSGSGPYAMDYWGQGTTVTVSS VL: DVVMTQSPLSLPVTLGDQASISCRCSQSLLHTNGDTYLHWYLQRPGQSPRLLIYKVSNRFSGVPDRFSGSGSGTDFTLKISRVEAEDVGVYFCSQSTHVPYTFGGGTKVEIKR", 44),
    ("Ref #3 (antibody, human IgG1, V domains shown) VH: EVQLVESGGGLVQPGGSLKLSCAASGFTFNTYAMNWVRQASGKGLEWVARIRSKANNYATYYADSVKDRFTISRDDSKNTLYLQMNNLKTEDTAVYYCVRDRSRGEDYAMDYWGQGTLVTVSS VL: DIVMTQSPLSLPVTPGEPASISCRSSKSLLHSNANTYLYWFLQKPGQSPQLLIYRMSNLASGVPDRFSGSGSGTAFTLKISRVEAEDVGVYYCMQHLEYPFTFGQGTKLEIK", 95),
    ("Ref #2 (antibody, human IgG1, V domains shown) VH: QVQLVQSGAEVKKPGASVKVSCKASGYTFTSYYMHWVRQAPGQGLEWMGIINPSGGSTSYAQKFQGRVTMTRDTSTSTVYMELSSLRSEDTAVYYCARAVRNRFRFDYWGQGTLVTVSS VL: QSALTQPASVSGSPGQSITISCTGTSSDVGSYNLVSWYQQHPGKAPKLMIYEVSKRPSGVSNRFSGSKSGNTASLTISGLQAEDEADYYCSSYAGSSTFVVFGGGTKLTVL", 100),
]

Suppose we examine the binder Ref #1 (antibody, human IgG1, V domains shown, Benchmark; cloned into vectors encoding heavy and light chains of human IgG1, produced in CHO; also called TPP-21360 of WO 2021/260210) VH: EVQLLESGGGLVQPGGSLRLSCAASGFTFSSYGMHWVRQAPGKGLEWVSAINWNGGSTGYADSVKGRFTISRDNSKNTLYLQMNSLRAEDTAVYYCARGHHSGYDGRFFDYWGQGTLVTVSS VL: QSVLTQPPSVSGAPGQRVTISCTGSSSNIGAGYNVHWYQQLPGTAPKLLIYTNNRRPSGVPDRFSGSKSGTSASLAISGLRSEDEADYYCAAWDASLSGWVFGGGTKLTVL ; what % hCCR8 internalization with CCL1 300 nM, mAb 1 µg/ml (HTRF) value has been reported?
126
